# System: CFPAC-1 cells
# experimental_details: Cell proliferation assay Method B, CFPAC-1
# Assay type: cell-based
# condition_label: Homo sapiens, Pancreas, 72 hours, read-out: antiproliferative activity IC50, CFPAC-1
pIC50: −log10 of the molar value.
test_readout: pIC50

Ask: Supply pIC50 measured with CFPAC-1 cells for CS(=O)(=O)N1CCN(Cc2cc3nc(-c4cccc5[nH]ncc45)nc(N4CCOCC4)c3s2)CC1 [GDC-0941, reference compound] .
Result: < 5.00

###

# System: H1993 cells
# experimental_details: Cell proliferation assay Method B, H1993
# Format: cell-based
# condition_label: Homo sapiens, NCI-H1993; NSCLC; Method B; 72 hours; read-out: antiproliferative activity IC50, H1993
test_readout: IC50

Some entries whose results are on file:
* CNc1ncc(-c2nc(N3CCOCC3)c3sc(CN(C)c4ncc(C(=O)NO)cn4)cc3n2)cn1 | 0.01 to 0.1 µM
* CN(Cc1cc2nc(-c3ccc(N)cc3)nc(N3CCOCC3)c2s1)c1ncc(C(=O)NO)cn1 | < 0.01 µM
* CS(=O)(=O)N1CCN(Cc2cc3nc(-c4cccc5[nH]ncc45)nc(N4CCOCC4)c3s2)CC1 [GDC-0941, reference compound] | 1 to 10 µM
* CN(Cc1cc2nc(-c3cccc(CO)c3)nc(N3CCOCC3)c2s1)c1ncc(C(=O)NO)cn1 | 0.01 to 0.1 µM

# context switch: different molecule, same IC50
Ask: Identify measured IC50 corresponding to Cc1ncc(-c2nc(N3CCOCC3)c3sc(CN(C)c4ncc(C(=O)NO)cn4)cc3n2)cn1
Result: 0.01 to 0.1 µM

###

# Tested on: U87MG cells
# experimental_details: Cell proliferation assay Method B, U87MG
# Type: cell-based
# condition_label: Homo sapiens, U-87 MG; Glioblastoma; U87MG; 72 hours, 0.5% fetal bovine serum, CellTiter-Glo; read-out: antiproliferative activity IC50, U87MG
# Experimental: Cancer cell lines were plated at 5,000 to 10,000 per well in 96-well flat bottomed plates with various concentration of compounds. The cells were incubated with compounds for 72 hours in the presence of 0.5% of fetal bovine serum. Growth inhibition was accessed by adenosine triphosphate (ATP) content assay using Promega CellTiter-Glo kit. […] The mixture was shaken and incubated for 30 minutes and subsequently the luminescence was measured.
test_readout: IC50

Some entries whose results are on file:
* CC(=O)Nc1ccc(-c2nc(N3CCOCC3)c3sc(CN(C)c4ncc(C(=O)NO)cn4)cc3n2)cc1 [Compound 157] | 10 to 100 nM
* CN(Cc1cc2nc(-c3ccc(N)nc3)nc(N3CCOCC3)c2s1)c1ncc(C(=O)NO)cn1 [Compound 110] | < 10 nM
* CN(Cc1cc2nc(-c3cnc(N)nc3)nc(N3CCOCC3)c2s1)c1ncc(C(=O)NO)cn1 [Compound 115] | 10 to 100 nM
* CN(Cc1cc2nc(-c3cccc4[nH]ncc34)nc(N3CCOCC3)c2s1)c1ncc(C(=O)NO)cn1 [Compound 54] | 10 to 100 nM

# context switch: different molecule, same IC50
Ask: Identify measured IC50 corresponding to CN(Cc1cc2nc(-c3cccc(O)c3)nc(N3CCOCC3)c2s1)c1ncc(C(=O)NO)cn1 [Compound 132]
Result: 10 to 100 nM

###

melting point for assorted molecules

Ask: Identify measured melting point corresponding to CN(Cc1cc2nc(-c3ccc(Cl)cc3)nc(N3CCOCC3)c2s1)c1ncc(C(=O)NO)cn1 [Compound 147]
Result: 153 °C

Ask: Identify measured melting point corresponding to Nc1ncc(-c2nc(N3CCOCC3)c3sc(NCCCCCC(=O)NO)cc3n2)cn1 [Compound 232]
Result: 220 to 225 °C

Ask: Identify measured melting point corresponding to O=C(NO)c1cnc(NCc2cc3nc(-c4cccc5[nH]ncc45)nc(N4CCOCC4)c3s2)nc1 [Compound 53]
Result: 234 to 237 °C

Ask: Identify measured melting point corresponding to C[C@@H](O)c1cccc(-c2nc(N3CCOCC3)c3sc(CN(C)c4ncc(C(=O)NO)cn4)cc3n2)c1 [Compound 297]
Result: 169 to 173 °C

Ask: Identify measured melting point corresponding to O=C(NO)c1cnc(N2CCC(CNCc3cc4nc(-c5cccc6[nH]ncc56)nc(N5CCOCC5)c4s3)CC2)nc1 [Compound 15]
Result: 170 to 172 °C

Ask: Identify measured melting point corresponding to CNc1ncc(-c2nc(N3CCOCC3)c3sc(CN(C)c4ncc(C(=O)NO)cn4)cc3n2)cn1 [Compound 116]
Result: 183 to 187 °C

Ask: Identify measured melting point corresponding to CN(Cc1cc2nc(-c3ccc(C#N)cc3)nc(N3CCOCC3)c2s1)c1ncc(C(=O)NO)cn1 [Compound 146]
Result: 214 to 216 °C

Ask: Identify measured melting point corresponding to CS(=O)(=O)N1CCN(Cc2cc3nc(-c4cccc5c4cnn5CCCCC(=O)NO)nc(N4CCOCC4)c3s2)CC1 [Compound 3]
Result: 139 to 143 °C

Ask: Identify measured melting point corresponding to Cc1ncc(-c2nc(N3CCOCC3)c3sc(NCCCCC(=O)NO)cc3n2)cn1 [Compound 229]
Result: 248 to 252 °C

Ask: Identify measured melting point corresponding to Nc1ncc(-c2nc(N3CCOCC3)c3sc(NS(=O)(=O)c4cccc(/C=C/C(=O)NO)c4)cc3n2)cn1 [Compound 218]
Result: > 300 °C

Ask: Identify measured melting point corresponding to O=C(CCCCCN1CCN(Cc2cc3nc(-c4cccc5[nH]ncc45)nc(N4CCOCC4)c3s2)CC1)NO [Compound 12]
Result: 123 to 124 °C

Ask: Identify measured melting point corresponding to CNc1ccc(-c2nc(N3CCOCC3)c3sc(C(=O)NCC4CCN(c5ncc(C(=O)NO)cn5)CC4)cc3n2)cn1 [Compound 308]
Result: 215 to 218 °C

Ask: Identify measured melting point corresponding to CN(Cc1cc2nc(-c3cn[nH]c3)nc(N3CCOCC3)c2s1)c1ncc(C(=O)NO)cn1 [Compound 196]
Result: 214 to 217 °C

Ask: Identify measured melting point corresponding to Nc1ccc(-c2nc(N3CCOCC3)c3sc(C(=O)NCC4CCN(c5ncc(C(=O)NO)cn5)CC4)cc3n2)cc1 [Compound 307]
Result: 232 to 238 °C

Ask: Identify measured melting point corresponding to COc1ccc(-c2nc(N3CCOCC3)c3sc(C(C)(C)N(C)c4ncc(C(=O)NO)cn4)cc3n2)cn1 [Compound 251]
Result: 175 to 178 °C
